From: ChEMBL document CHEMBL4382237

system: Trypanosoma brucei brucei; test: Antiparasitic activity against bloodstream form of Trypanosoma brucei brucei strain 427 after 48 hrs by resazurin dye-based assay; type: functional, organism-based; conditions: strain 427, 48 h, read-out: IC50
Field 'label' (enum: true / false). Set to true when IC50 is strictly under 2 µM; else false.

Answered examples (5):
compound	measured.target	qualitative.label
O=C(Cn1ccn2cc([N+](=O)[O-])nc2c1=O)N1CCOCC1	Trypanosoma brucei brucei	false
Cc1nc(OCc2cccc(OC(F)(F)F)c2)c2nc([N+](=O)[O-])cn2c1C	Trypanosoma brucei brucei	true
Cc1ccc(COc2nc(C)c(C)n3cc([N+](=O)[O-])nc23)cc1	Trypanosoma brucei brucei	false
Cc1ncc([N+](=O)[O-])n1CCO [METRONIDAZOLE]	Trypanosoma brucei brucei	false
Cc1c(C)n2cc([N+](=O)[O-])nc2c(=O)n1Cc1cccc(OC(F)(F)F)c1	Trypanosoma brucei brucei	true

Q. Hello, I'm reviewing records and need to know if IC50 of "O=c1c2nc([N+](=O)[O-])cn2ccn1C1CCCCC1" is below 2 µM. Could you check?
A. true

Q. Thanks! And "O=c1c2nc([N+](=O)[O-])cn2ccn1Cc1ccccc1OC(F)(F)F" ?
A. false
